Taken from ChEMBL document CHEMBL2321733.

Target: Phosphatidylinositol 4,5-bisphosphate 3-kinase catalytic subunit delta isoform (Homo sapiens, UniProt O00329)
Sequence (O00329 whole entry): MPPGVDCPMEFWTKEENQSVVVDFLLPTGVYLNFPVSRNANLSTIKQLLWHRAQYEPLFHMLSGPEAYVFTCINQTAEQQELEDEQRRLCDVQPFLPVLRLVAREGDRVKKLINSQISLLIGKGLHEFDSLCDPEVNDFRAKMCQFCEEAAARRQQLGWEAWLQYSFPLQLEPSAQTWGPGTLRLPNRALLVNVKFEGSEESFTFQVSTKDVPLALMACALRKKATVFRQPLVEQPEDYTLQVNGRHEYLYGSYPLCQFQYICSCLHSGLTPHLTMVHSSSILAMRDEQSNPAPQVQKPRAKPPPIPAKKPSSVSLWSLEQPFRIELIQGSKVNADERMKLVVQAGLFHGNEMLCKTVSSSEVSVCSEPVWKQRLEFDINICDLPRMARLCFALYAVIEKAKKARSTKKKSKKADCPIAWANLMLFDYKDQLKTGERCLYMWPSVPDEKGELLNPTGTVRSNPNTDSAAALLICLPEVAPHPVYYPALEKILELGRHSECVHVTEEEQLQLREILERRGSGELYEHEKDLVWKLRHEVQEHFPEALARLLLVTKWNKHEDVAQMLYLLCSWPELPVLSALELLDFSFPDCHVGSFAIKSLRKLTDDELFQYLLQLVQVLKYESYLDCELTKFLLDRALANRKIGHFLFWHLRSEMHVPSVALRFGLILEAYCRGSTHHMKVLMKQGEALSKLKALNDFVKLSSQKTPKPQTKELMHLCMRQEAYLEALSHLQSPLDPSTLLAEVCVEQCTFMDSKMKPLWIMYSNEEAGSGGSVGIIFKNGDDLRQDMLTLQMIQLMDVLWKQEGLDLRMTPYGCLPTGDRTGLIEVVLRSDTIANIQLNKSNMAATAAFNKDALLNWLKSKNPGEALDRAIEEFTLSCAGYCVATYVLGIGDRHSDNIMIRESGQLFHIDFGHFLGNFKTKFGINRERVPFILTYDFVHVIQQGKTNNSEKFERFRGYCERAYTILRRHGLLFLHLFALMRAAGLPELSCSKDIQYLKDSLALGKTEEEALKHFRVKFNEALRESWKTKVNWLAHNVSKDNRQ
Test: Inhibition of PI3Kdelta (unknown origin)
pIC50: −log10 of the molar value.
REPORTED_ENDPOINT: pIC50

Example entries and their recorded answers appear below.
{"STRUCTURE_SMILES": "CC(=O)Nc1cc(N2CCOCC2)nc2c(Cc3cccc(C(F)(F)F)c3C)c(C)nn12", "pIC50": "< 6.20"}
{"STRUCTURE_SMILES": "Cc1c(Cc2cnn3c(Cl)cc(N4CCOCC4)nc23)cccc1C(F)(F)F", "pIC50": "< 6.20"}
{"STRUCTURE_SMILES": "Cc1nn2c(C(N)=O)cc(N3CCOCC3)nc2c1Cc1cccc(C(F)(F)F)c1C", "pIC50": "< 6.20"}
{"STRUCTURE_SMILES": "Cc1c(Cc2c(=O)[nH]n3c(=O)cc(C4CCOCC4)[nH]c23)cccc1C(F)(F)F", "pIC50": "< 6.20"}

### Prompt Give the value of pIC50 reported for the following: Cc1nn2c(C#N)cc(N3CCOCC3)nc2c1Cc1cccc(C(F)(F)F)c1C
### Response < 6.60
